FYI, the data here is from ChEMBL document CHEMBL3988442.

Recorded IC50 for the following compounds
target: Coenzyme A biosynthesis bifunctional protein CoaBC (Mycobacterium tuberculosis (strain ATCC 25618 / H37Rv), UniProt P9WNZ1); experiment: Biomol Green assay for MtCoaBC inhibitor, OD650 read; assay type: functional
Sequence (P9WNZ1 whole entry): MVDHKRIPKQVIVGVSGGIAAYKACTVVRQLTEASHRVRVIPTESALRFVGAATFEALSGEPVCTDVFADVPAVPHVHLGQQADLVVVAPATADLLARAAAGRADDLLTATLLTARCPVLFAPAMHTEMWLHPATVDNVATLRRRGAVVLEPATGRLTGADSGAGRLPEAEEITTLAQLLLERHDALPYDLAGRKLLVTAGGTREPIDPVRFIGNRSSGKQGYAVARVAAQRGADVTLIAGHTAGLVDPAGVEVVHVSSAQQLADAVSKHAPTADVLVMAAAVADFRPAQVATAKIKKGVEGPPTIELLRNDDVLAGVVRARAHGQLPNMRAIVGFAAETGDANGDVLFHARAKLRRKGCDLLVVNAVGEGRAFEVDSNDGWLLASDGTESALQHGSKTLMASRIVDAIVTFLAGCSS

>  <compound>
CCc1nc(NCCc2c(C)nn(CC)c2C)c2cnn(C)c2n1

>  <IC50>
> 30.2 µM

$$$$
>  <compound>
Cc1nnc(N2C[C@@H](OCC3CCCC3)[C@H]3OCCC[C@H]32)s1

>  <IC50>
> 30.2 µM

$$$$
>  <compound>
O=C(NCCc1ccncc1)[C@H]1C[C@@H]2CCN(c3nncs3)C[C@H]2O1

>  <IC50>
> 30.2 µM

$$$$
>  <compound>
COc1ccc(NC2CCCN(Cc3cnc(N(C)C)s3)C2)cc1OC (stereo not given)

>  <IC50>
> 30.2 µM

$$$$
>  <compound>
CCOCC1CN(Cc2ccoc2)Cc2cn(CC3CC3)nc21 (stereo not given)

>  <IC50>
> 30.2 µM

$$$$

* * *

Biological target: Histidine--tRNA ligase (Leishmania infantum)
Sequence (A4I591 whole entry): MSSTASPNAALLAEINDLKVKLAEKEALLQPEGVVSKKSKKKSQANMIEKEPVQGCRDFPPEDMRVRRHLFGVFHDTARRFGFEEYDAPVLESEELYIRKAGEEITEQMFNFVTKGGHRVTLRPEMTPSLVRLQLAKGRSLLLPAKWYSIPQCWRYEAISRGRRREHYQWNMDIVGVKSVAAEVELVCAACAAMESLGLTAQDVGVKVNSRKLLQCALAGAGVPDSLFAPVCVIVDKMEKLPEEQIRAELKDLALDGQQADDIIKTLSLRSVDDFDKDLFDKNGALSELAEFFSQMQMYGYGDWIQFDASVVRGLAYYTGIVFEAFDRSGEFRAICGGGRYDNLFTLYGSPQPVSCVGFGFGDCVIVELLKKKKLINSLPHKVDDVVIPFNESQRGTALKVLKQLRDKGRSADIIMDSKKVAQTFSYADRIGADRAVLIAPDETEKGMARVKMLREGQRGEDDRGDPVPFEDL
Assay: Leishmania infantum Histidine tRNA synthetase (LdHisRS)

>  <molecule>
CCC1CN(CCC(=O)N(C)C)CCN1CCOC (configuration not stated)

>  <test target>
Histidine--tRNA ligase (Leishmania infantum)

>  <IC50>
> 100 µM

$$$$
>  <molecule>
Cc1csc(CN(C)C(C)C(=O)N2CCc3ccccc3C2)n1 (configuration not stated)

>  <test target>
Histidine--tRNA ligase (Leishmania infantum)

>  <IC50>
> 100 µM

$$$$
>  <molecule>
O=C(Cc1cnc(-c2c(Cl)cccc2Cl)s1)N1CCOCC1

>  <test target>
Histidine--tRNA ligase (Leishmania infantum)

>  <IC50>
> 100 µM

$$$$
>  <molecule>
CCC1=NOC(CNCc2cnc(-c3ccccc3C)s2)C1 (configuration not stated)

>  <test target>
Histidine--tRNA ligase (Leishmania infantum)

>  <IC50>
> 100 µM

$$$$
>  <molecule>
O=C(c1cncc(N2CCC3(CCCNC3)C2)n1)N1CCCC1 (configuration not stated)

>  <test target>
Histidine--tRNA ligase (Leishmania infantum)

>  <IC50>
> 100 µM

$$$$
>  <molecule>
COc1ccc(-c2noc(CN3CCc4cncnc4C3)n2)cc1

>  <test target>
Histidine--tRNA ligase (Leishmania infantum)

>  <IC50>
> 100 µM

$$$$
>  <molecule>
CCC(C)NC(=O)NCCCn1nc2ccccn2c1=O (configuration not stated)

>  <test target>
Histidine--tRNA ligase (Leishmania infantum)

>  <IC50>
> 100 µM

$$$$
>  <molecule>
COCc1nc2cc(NCc3cc[nH]n3)ccc2o1

>  <test target>
Histidine--tRNA ligase (Leishmania infantum)

>  <IC50>
> 100 µM

$$$$
>  <molecule>
Cc1noc(C(C)Nc2ccc(N3CCOCC3)cc2C)n1 (configuration not stated)

>  <test target>
Histidine--tRNA ligase (Leishmania infantum)

>  <IC50>
> 100 µM

$$$$
>  <molecule>
COc1cccn(CC(=O)N2CCCC3(CCCO3)CC2)c1=O (configuration not stated)

>  <test target>
Histidine--tRNA ligase (Leishmania infantum)

>  <IC50>
> 100 µM

$$$$
>  <molecule>
CCC(C#N)NC(=O)CCCOc1cccc(C(C)=O)c1 (configuration not stated)

>  <test target>
Histidine--tRNA ligase (Leishmania infantum)

>  <IC50>
> 100 µM

$$$$
>  <molecule>
Cn1nccc1-c1ncc(-c2cc(C(=O)O)n(CC3CC3)c2)cn1

>  <test target>
Histidine--tRNA ligase (Leishmania infantum)

>  <IC50>
> 100 µM

$$$$

* * *

Known pIC50 of a selection of molecules
test system: Plasmodium falciparum; assay: Plasmodium falciparum sporozoite viability assay; assay type: functional, organism-based; conditions: Plasmodium falciparum
pIC50: −log10 of the molar value.

>  <molecule>
c1ccc2sc(CN3CCOC(Cn4cncn4)C3)nc2c1 (stereo unspecified)

>  <pIC50>
6.21

$$$$
>  <molecule>
CC(C)C(=O)N1CCN(Cc2csc(-c3ccccn3)n2)CC1

>  <pIC50>
6.02

$$$$
>  <molecule>
CC(C)(C)n1ncc2c1CCCC2NCc1ccc2c(c1)OCCO2 (stereo unspecified)

>  <pIC50>
6.39

$$$$
>  <molecule>
COc1cc(F)c(NCc2nc3ccccc3n2C)cc1OC

>  <pIC50>
6.59

$$$$
>  <molecule>
Cc1ccsc1-c1cccc(-c2ccn(CC3CCNC3)n2)c1 (stereo unspecified)

>  <pIC50>
5.59

$$$$
>  <molecule>
CSc1ccc(-c2nc(CN3CCC(NC(C)=O)C3)c(C)o2)cc1 (stereo unspecified)

>  <pIC50>
6.27

$$$$

* * *

pIC50 by entry:
tested on: Plasmodium falciparum; test: Calibr Malaria Delayed Death Assay SOP; type: functional, organism-based

>  <compound>
CC(C)[C@@H]1CN(C(=O)C2(c3ccccc3)CCN(C)CC2)C[C@H]1N(C)C

>  <pIC50>
6.113

$$$$
>  <compound>
CN(Cc1ccco1)C[C@H]1OC[C@@H]2CCN(Cc3ccsc3)C[C@@H]21.O=C(O)C(F)(F)F.O=C(O)C(F)(F)F

>  <pIC50>
6.029

$$$$
>  <compound>
O=C(O)C(F)(F)F.O=C(O)C(F)(F)F.c1cncc(N2CCCC3(CCN(CCN4CCCC4)CC3)C2)c1

>  <pIC50>
5.977

$$$$
>  <compound>
COc1cccc(Cn2c(C3CCNCC3)cc3cccnc32)c1.Cl

>  <pIC50>
6.096

$$$$
>  <compound>
CC(C)N(C)Cc1cnc2n1CCN(C(=O)NC1CCCC1)C2.O=C(O)C(F)(F)F

>  <pIC50>
6.607

$$$$
>  <compound>
CN(Cc1ccccc1-n1cccn1)C[C@@H]1CCCN2CCCC[C@H]12

>  <pIC50>
6.129

$$$$
>  <compound>
O=C(Cn1ccc2ccc(Br)cc21)NC[C@@H]1CCCN2CCCC[C@H]12

>  <pIC50>
5.89

$$$$
>  <compound>
Cc1cc(CN(C)c2nc(-c3ccccn3)nc3c2CCNCC3)n[nH]1

>  <pIC50>
5.981

$$$$
>  <compound>
CN(Cc1ccoc1)C(=O)C1(Oc2ccc(Cl)cc2)CCNCC1

>  <pIC50>
6.021

$$$$
>  <compound>
CC(C)NC(=O)C1(Cc2ccccc2-c2cccs2)CCNC1 (stereo not given)

>  <pIC50>
6.06

$$$$

* * *

system: Wolbachia pipientis; experiment: Anti-Wolbachia Cell-Based Screen; assay type: functional; settings: Wolbachia pipientis
pIC50: −log10 of the molar value.

>  <compound>
CC(=O)N1CCN(C(=O)CCn2c(C)nc3ccccc3c2=O)CC1

>  <prefix operator>
<

>  <pIC50>
5.00

$$$$
>  <compound>
CCc1nc(C)sc1CN1CCc2[nH]nc(-c3ccc(F)c(F)c3)c2C1

>  <prefix operator>
=

>  <pIC50>
5.31

$$$$
>  <compound>
CCn1cc(NC(=O)c2cccc(CN3C[C@@H](C)O[C@@H](C)C3)c2)nn1

>  <prefix operator>
=

>  <pIC50>
5.08

$$$$
>  <compound>
c1ccc(-c2nc(CN3CCCC3Cn3cncn3)no2)cc1 (stereo not drawn)

>  <prefix operator>
<

>  <pIC50>
5.00

$$$$
>  <compound>
COCC(=O)Nc1ccc(-c2noc([C@@H]3CCCN3C(C)C)n2)cn1

>  <prefix operator>
=

>  <pIC50>
5.05

$$$$
>  <compound>
Fc1ccc(N2CCCN(Cc3ccc(-c4cc[nH]n4)o3)CC2)cc1

>  <prefix operator>
=

>  <pIC50>
5.19

$$$$
>  <compound>
CCc1ccc(CN(C)Cc2nc(COc3ccccc3)no2)nc1

>  <prefix operator>
=

>  <pIC50>
5.04

$$$$
>  <compound>
COc1ccc(C[C@H]2CN(c3nnc(C)s3)CC[C@@H]2OC)cc1.O=C(O)C(F)(F)F

>  <prefix operator>
=

>  <pIC50>
5.45

$$$$
>  <compound>
CC(C)N1c2sc(-c3ccsc3)nc2CC1C(=O)NC1CCCC1 (stereo not drawn)

>  <prefix operator>
=

>  <pIC50>
5.15

$$$$
>  <compound>
Cc1nn(C)c2nc(N3CCCCC3c3ccc(F)cc3)sc12 (stereo not drawn)

>  <prefix operator>
=

>  <pIC50>
5.65

$$$$
>  <compound>
CCc1cc(N(C)Cc2nonc2C)nc(N(C)C)n1

>  <prefix operator>
=

>  <pIC50>
5.72

$$$$
>  <compound>
Cc1csc(CN(C)c2cc(C)nc3c(C)c(C)nn23)n1

>  <prefix operator>
=

>  <pIC50>
5.20

$$$$
>  <compound>
CC(C)N1CC(NC(=O)c2ccc(Cl)s2)CC1=O (stereo not drawn)

>  <prefix operator>
<

>  <pIC50>
5.00

$$$$
>  <compound>
Cc1ccc(CSc2nc(N)cc(NCCC(=O)N3CCCC3)n2)cc1

>  <prefix operator>
=

>  <pIC50>
5.31

$$$$
>  <compound>
CN(C)c1cc(CNCc2ccc(N3CCOCC3)cc2)ccn1

>  <prefix operator>
<

>  <pIC50>
5.00

$$$$
>  <compound>
Cc1nn(C)c2nc(N3CCCC3c3nccs3)sc12 (stereo not drawn)

>  <prefix operator>
=

>  <pIC50>
5.74

$$$$
>  <compound>
O=C(Nc1ccccn1)NC(CCCO)c1ccccc1 (stereo not drawn)

>  <prefix operator>
=

>  <pIC50>
5.21

$$$$
>  <compound>
NC(=O)C1CCN(c2nc3nccc(-c4ccccn4)c3c(=O)[nH]2)CC1

>  <prefix operator>
<

>  <pIC50>
5.00

$$$$
>  <compound>
Fc1ccc(CN2CCCC(c3cc4ncccc4[nH]3)C2)cc1 (stereo not drawn)

>  <prefix operator>
=

>  <pIC50>
5.17

$$$$
>  <compound>
CCN(CC)S(=O)(=O)N1CCCC1c1cccc(Nc2ncc(C)s2)n1 (stereo not drawn)

>  <prefix operator>
=

>  <pIC50>
5.05

$$$$
>  <compound>
CCC(Nc1nc(C)nc2onc(C)c12)c1nc(C)c(C)s1 (stereo not drawn)

>  <prefix operator>
=

>  <pIC50>
5.60

$$$$
>  <compound>
CC(C)[C@@H]1CN(C2CCN(Cc3ccccc3)CC2)C[C@H]1NS(C)(=O)=O

>  <prefix operator>
=

>  <pIC50>
5.43

$$$$
>  <compound>
c1cnnc(N2CCCC2CNCc2csc(-c3ccco3)n2)c1 (stereo not drawn)

>  <prefix operator>
<

>  <pIC50>
5.00

$$$$
